Where do the numbers come from? From ChEMBL document CHEMBL2010703.

- Organism: Homo sapiens
- assay procedure: Selectivity ratio of IC50 for human DAT to IC50 for human SERT
Please use Fulfilled whenever Ratio IC50 is not below 1, and Not fulfilled whenever it is.

Use the examples below as a reference point.
COC(=O)[C@@H]1C2CCC(C[C@@H]1c1cc3ccccc3[nH]1)O2 (mixture of isomers): Not fulfilled
COC(=O)[C@@H]1C2CCC(C[C@@H]1c1ccc(-c3ccco3)cc1)O2 (mixture of isomers): Fulfilled
COC(=O)C1=C(c2cc3ccccc3o2)CC2CCC1O2 (racemic): Not fulfilled
COC(=O)[C@@H]1C2CCC(C[C@H]1c1ccc(-c3cccs3)cc1)O2 (mixture of isomers): Fulfilled
COC(=O)[C@H]1C2CCC(C[C@H]1c1cc3ccccc3[nH]1)O2 (mixture of isomers): Not fulfilled

Qu. Threshold query (Ratio IC50 >= 1) on COC(=O)[C@H]1C2CCC(C[C@@H]1c1cc3ccccc3[nH]1)O2 (mixture of isomers)
Ans. Not fulfilled

Qu. Record COC(=O)[C@@H]1C2CCC(C[C@H]1c1ccc(-c3nccs3)cc1)O2 (mixture of isomers) ; criterion: Ratio IC50 no lower than 1. Met?
Ans. Fulfilled

Qu. Could you tell me if the measured Ratio IC50 of COC(=O)[C@@H]1C2CCC(C[C@@H]1c1ccc(-c3cccn3C)cc1)O2 (mixture of isomers) reaches 1 or more?
Ans. Fulfilled

Qu. I'd appreciate it if you could say whether COC(=O)C1=C(c2cccc(-c3cccn3C)c2)CC2CCC1O2 (racemic) has Ratio IC50 at least equal to 1.
Ans. Fulfilled

Qu. Kindly determine if Ratio IC50 recorded for COC(=O)[C@@H]1C2CCC(C[C@H]1c1ccc(-c3ccco3)cc1)O2 (mixture of isomers) is above or exactly 1.
Ans. Fulfilled
